- method: Half life in cynomolgus monkey liver microsomes at 0.5 uM after 1 hr in presence of NADPH by LC-MS/MS analysis
- Format: ADME, Macaca fascicularis, microsome
observation_type: half-life at 0.5 µM (min)
Form entry: value (min) — number only.

For reference, reported half-life at 0.5 µM for C=C(C)[C@@H]1CC[C@]2(NCCN3CCS(=O)(=O)CC3)CC[C@]3(C)[C@H](CC[C@@H]4[C@@]5(C)CC=C(c6ccc(C(=O)O)cc6)C(C)(C)[C@@H]5CC[C@]43C)[C@@H]12 [BMS-955176] stands at 11

====

- method: in vitro
- particulars: human, liver microsomes
- Description: Half life in human liver microsomes at 0.5 uM after 1 hr in presence of NADPH by LC-MS/MS analysis
observation_type: half-life at 1 h, 0.5 µM

Example cases with answers are listed next.
C=C(C)[C@@H]1CC[C@]2(NC(=O)C(C(C)C)N3CCS(=O)(=O)CC3)CC[C@]3(C)[C@H](CC[C@@H]4[C@@]5(C)CC=C(c6ccc(C(=O)O)cc6)C(C)(C)[C@@H]5CC[C@]43C)[C@@H]12 (some centres undefined)	> 2 h
C=C(C)[C@@H]1CC[C@]2(NCCN3C[C@@H]4C[C@H]3CS4(=O)=O)CC[C@]3(C)[C@H](CC[C@@H]4[C@@]5(C)CC=C(c6ccc(C(=O)O)cc6)C(C)(C)[C@@H]5CC[C@]43C)[C@@H]12	> 2 h
C=C(C)[C@@H]1CC[C@]2(NC(=O)CCN3CCS(=O)(=O)CC3)CC[C@]3(C)[C@H](CC[C@@H]4[C@@]5(C)CC=C(c6ccc(C(=O)O)cc6)C(C)(C)[C@@H]5CC[C@]43C)[C@@H]12	> 2 h
C=C(C)[C@@H]1CC[C@]2(CNCCCN3CCS(=O)(=O)CC3)CC[C@]3(C)[C@H](CC[C@@H]4[C@@]5(C)CC=C(c6ccc(C(=O)O)cc6)C(C)(C)[C@@H]5CC[C@]43C)[C@@H]12	> 2 h
C=C(C)[C@@H]1CC[C@]2(NCCN3CC4(C3)CN(S(C)(=O)=O)C4)CC[C@]3(C)[C@H](CC[C@@H]4[C@@]5(C)CC=C(c6ccc(C(=O)O)cc6)C(C)(C)[C@@H]5CC[C@]43C)[C@@H]12	> 2 h
C=C(C)[C@@H]1CC[C@]2(NCCO)CC[C@]3(C)[C@H](CC[C@@H]4[C@@]5(C)CC=C(c6ccc(C(=O)O)cc6)C(C)(C)[C@@H]5CC[C@]43C)[C@@H]12	> 2 h
C=C(C)[C@@H]1CC[C@]2(NCCN3CCN(S(=O)(=O)CC)CC3)CC[C@]3(C)[C@H](CC[C@@H]4[C@@]5(C)CC=C(c6ccc(C(=O)O)cc6)C(C)(C)[C@@H]5CC[C@]43C)[C@@H]12	> 2 h
C=C(C)[C@@H]1CC[C@]2(NCCN3CCS(=N)(=O)CC3)CC[C@]3(C)[C@H](CC[C@@H]4[C@@]5(C)CC=C(c6ccc(C(=O)O)cc6)C(C)(C)[C@@H]5CC[C@]43C)[C@@H]12	> 2 h

Switching to the query record.
// field: half-life at 1 h, 0.5 µM; key: `C=C(C)[C@@H]1CC[C@]2(NCCN3CCC4(C3)CN(S(C)(=O)=O)C4)CC[C@]3(C)[C@H](CC[C@@H]4[C@@]5(C)CC=C(c6ccc(C(=O)O)cc6)C(C)(C)[C@@H]5CC[C@]43C)[C@@H]12` ; value = > 2 h
